ASSAYED_SYSTEM: human activated kallikrein enzyme (Homo sapiens)
METHOD_SUMMARY: Plasma kallikrein inhibition, fluorogenic PFR-AMC substrate, 500 pM activated kallikrein format
Assay type: biochemical
MEASUREMENT_SETUP: 500 pM activated kallikrein, 300 uM PFR-AMC, 30 min preincubation, 10 min reaction; read-out: Primary Dose Response Assay: Average EC50
MEASURED_ATTRIBUTE: EC50

Below, each entry is followed by its recorded EC50 result.
COMPOUND: Cc1ccnc([C@H]2C[C@@H]2C(=O)Nc2cc(N[C@H](C)c3cn4cc(C5CC5)cc(S(C)(=O)=O)c4n3)nc(C)n2)n1
EC50: < 1 nM
--
COMPOUND: CN1CCC(O)(c2cc(C3CC3)cn3cc(CNc4cc(NC(=O)[C@H]5C[C@@H]5c5cccc(Cl)c5)ncn4)nc23)CC1
EC50: < 1 nM
--
COMPOUND: O=C(Nc1cc(NCc2cn3cc(C4CC4)ccc3n2)ccn1)[C@@H]1C[C@H]1c1cccc(Cl)c1 (single isomer, unassigned) [Example 116]
EC50: 100 to 1000 nM
--
COMPOUND: CC(=O)OC(Cc1cn2cc(C3CC3)cc(N3CC(=O)N(C)C3=O)c2n1)c1cc(NC(=O)[C@H]2C[C@@H]2c2nccc(C)n2)nc(C)n1 (stereo partly drawn)
EC50: 100 to 1000 nM
--
COMPOUND: CN1C(=O)[C@]2(C[C@H]2C(=O)Nc2cc(NCc3cn4cc(C5CC5)ccc4n3)ncn2)c2cc(Cl)ccc21 (racemic)
EC50: 100 to 1000 nM

Now look at this one.
Reported EC50 of CCc1cc(N2CC(=O)N(C)C2=O)c2nc([C@@H](C)Nc3cc(NC(=O)[C@H]4C[C@@H]4c4nccc(C)n4)nc(C)n3)cn2c1 : < 1 nM

====

ASSAYED_SYSTEM: plasma kallikrein (Homo sapiens)
Construct: from tissue
METHOD_SUMMARY: Neat human plasma assay, FXIIa contact pathway-activated, PFR-AMC substrate
Assay type: biochemical
MEASUREMENT_SETUP: citrated human plasma 78% final, 10 nM human FXIIa, 100 μM PFR-AMC; read-out: Human Plasma Assay: IC90
MEASURED_ATTRIBUTE: IC90

COMPOUND: O=C(Nc1cc(NCc2cn3cc(C4CC4)cc(N4CCNCC4)c3n2)ccn1)[C@H]1C[C@@H]1c1cccc(Cl)c1
ASSAYED_SYSTEM: plasma kallikrein (Homo sapiens)
IC90: 400 to 1500 nM
//
COMPOUND: Cc1ccnc([C@H]2C[C@@H]2C(=O)Nc2ncc(F)c(NCc3cn4cc(C5CC5)cc(N5CC(=O)N(CCOCc6ccccc6)C5=O)c4n3)n2)n1 (racemic)
ASSAYED_SYSTEM: plasma kallikrein (Homo sapiens)
IC90: 400 to 1500 nM
//
COMPOUND: Cc1ccnc([C@H]2C[C@@H]2C(=O)Nc2cncc(NCc3cn4cc(C5CC5)cc(N5CC(=O)N(C)C5=O)c4n3)c2)n1 (racemic)
ASSAYED_SYSTEM: plasma kallikrein (Homo sapiens)
IC90: < 400 nM
//
COMPOUND: CN(C)C1CN(c2cc(C3CC3)cn3cc(CNc4ccnc(NC(=O)[C@H]5C[C@@H]5c5cccc(Cl)c5)c4)nc23)C1
ASSAYED_SYSTEM: plasma kallikrein (Homo sapiens)
IC90: 1500 to 10000 nM
//
COMPOUND: O=C(Nc1cc(NCc2cn3cc(C4CC4)cc(C(=O)N4CCNCC4)c3n2)ncn1)[C@H]1C[C@@H]1c1cccc(Cl)c1
ASSAYED_SYSTEM: plasma kallikrein (Homo sapiens)
IC90: < 400 nM

Now look at this one.
Reported IC90 of Cc1ccnc([C@H]2C[C@@H]2C(=O)Nc2cc(NCc3cn4cc(C5CC5)cc(N5CC6CC6C5=O)c4n3)ncn2)n1 (relative stereo) : 1500 to 10000 nM

====

ASSAYED_SYSTEM: human activated kallikrein enzyme (Homo sapiens, UniProt P03952)
METHOD_SUMMARY: Plasma kallikrein inhibition, fluorogenic PFR-AMC substrate, 500 pM activated kallikrein format
Assay type: biochemical
MEASUREMENT_SETUP: 500 pM activated kallikrein, 300 uM PFR-AMC, 30 min preincubation, 10 min reaction; read-out: Primary Dose Response Assay: Average EC50
MEASURED_ATTRIBUTE: EC50

Below, each entry is followed by its recorded EC50 result.
MOLECULE: Cc1ccnc([C@H]2C[C@@H]2C(=O)Nc2cc(NCc3cn4cc(C5CC5)cc(N5CC(=O)N(C)C5=O)c4n3)ccn2)n1 (racemic)
OBS_VALUE: < 1 nM
--
MOLECULE: Nc1ccc(Cl)cc1[C@H]1C[C@@H]1C(=O)Nc1cc(NCc2cn3cc(C4CC4)ccc3n2)ncn1 (racemic)
OBS_VALUE: 100 to 1000 nM
--
MOLECULE: Cc1ccnc([C@H]2C[C@@H]2C(=O)Nc2cc(NCc3cn4cc(C5(F)CC5)cc(N5CC(=O)N(C)C5=O)c4n3)ncn2)n1
OBS_VALUE: < 1 nM

Now look at this one.
Reported EC50 of O=C(Nc1cc(NCc2cn3cc(C4CC4)ccc3n2)cc(O)n1)[C@H]1C[C@@H]1c1cccc(Cl)c1 : < 1 nM

====

ASSAYED_SYSTEM: human activated kallikrein enzyme (Homo sapiens, UniProt P03952)
METHOD_SUMMARY: Plasma kallikrein inhibition, fluorogenic PFR-AMC substrate, 500 pM activated kallikrein format
Assay type: biochemical
MEASUREMENT_SETUP: 500 pM activated kallikrein, 300 uM PFR-AMC, 30 min preincubation, 10 min reaction; read-out: Primary Dose Response Assay: Average EC50
pEC50: −log10 of the molar value.
Kindly state pEC50 for each of the entries shown.

Below, each entry is followed by its recorded pEC50 result.
MOLECULE: O=C(Nc1nccnc1OCc1cn2cc(C3CC3)ccc2n1)[C@H]1C[C@@H]1c1cccc(Cl)c1
pEC50: 7.00 to 8.00
//
MOLECULE: CN1CCN(c2cc(C3CC3)cn3cc(CNc4nccc(NC(=O)[C@H]5C[C@@H]5c5cccc(Cl)c5)n4)nc23)CC1
pEC50: 8.00 to 9.00
//
MOLECULE: COc1cc([C@H]2C[C@@H]2C(=O)Nc2cc(NCc3cn4cc(C5CC5)ccc4n3)ncn2)cc(NC(=O)OC(C)(C)C)n1 (racemic)
pEC50: < 5.22
//
MOLECULE: CN(C)C1CCN(c2cc(C3CC3)cn3cc(CNc4cc(NC(=O)[C@H]5C[C@@H]5c5cccc(Cl)c5)ncn4)nc23)C1 (mixture of isomers) [Example I-13]
pEC50: 8.00 to 9.00
//
MOLECULE: COc1nc(NC(=O)[C@H]2C[C@@H]2c2nccc(C)n2)cc(N[C@H](C)c2cn3cc(C4CC4)cc(N4CC(=O)N(C)C4=O)c3n2)n1
pEC50: > 9.00
//
MOLECULE: Cc1ccnc([C@H]2C[C@@H]2C(=O)Nc2cc(NC(C)c3cn4cc(C5CC5)cc(N5CC(=O)N(C)C5=O)c4n3)nc(C)n2)n1 (stereo partly shown)
pEC50: > 9.00

Batch: pEC50 for all items listed.
1. Cc1ccnc([C@H]2C[C@@H]2C(=O)Nc2cc(N(C)Cc3cn4cc(C5CC5)cc(N5CC(=O)NC5=O)c4n3)ncn2)n1
2. Cc1cc(C)nc([C@H]2C[C@@H]2C(=O)Nc2cc(NCc3cn4cc(C5CC5)cc(N5CC(=O)N(C)C5=O)c4n3)ncn2)n1 (racemic)
3. CN1CCN(c2cc(C3CC3)cn3cc(COc4ccnc(NC(=O)[C@H]5C[C@@H]5c5cccc(Cl)c5)c4)nc23)CC1
4. CN1CCN(c2cc(C3CC3)cn3cc(CNc4ccnc(NC(=O)[C@H]5C[C@@H]5c5cccc(Cl)c5)c4)nc23)CC1
5. COc1ccc(Cl)cc1[C@H]1C[C@@H]1C(=O)Nc1cc(NCc2cn3cc(C4CC4)ccc3n2)ncn1 (racemic)

output:
> 9.00
> 9.00
8.00 to 9.00
> 9.00
6.00 to 7.00

Batch: pEC50 for all items listed.
1. Cc1ccnc([C@H]2C[C@@H]2C(=O)Nc2cc(N[C@H](C)c3cn4cc(C5CC5)cc(N5CC(=O)NC5=O)c4n3)ncn2)n1
2. CCc1cc(N2CC(=O)N(C)C2=O)c2nc([C@@H](C)Nc3cc(NC(=O)[C@H]4C[C@@H]4c4nccc(C)n4)ncn3)cn2c1

output:
> 9.00
> 9.00

====

ASSAYED_SYSTEM: plasma kallikrein (Homo sapiens, UniProt P03952)
Construct: from tissue
Sequence (P03952 391-638 limits assumed): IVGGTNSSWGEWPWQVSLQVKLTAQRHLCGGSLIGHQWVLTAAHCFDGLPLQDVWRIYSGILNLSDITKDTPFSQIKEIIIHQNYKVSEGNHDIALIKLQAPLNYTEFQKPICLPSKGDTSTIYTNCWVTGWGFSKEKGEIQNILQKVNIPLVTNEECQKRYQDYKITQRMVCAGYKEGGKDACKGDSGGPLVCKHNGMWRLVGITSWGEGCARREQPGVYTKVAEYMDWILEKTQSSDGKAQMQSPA
Sequence (P03952 20-390 partner limits assumed): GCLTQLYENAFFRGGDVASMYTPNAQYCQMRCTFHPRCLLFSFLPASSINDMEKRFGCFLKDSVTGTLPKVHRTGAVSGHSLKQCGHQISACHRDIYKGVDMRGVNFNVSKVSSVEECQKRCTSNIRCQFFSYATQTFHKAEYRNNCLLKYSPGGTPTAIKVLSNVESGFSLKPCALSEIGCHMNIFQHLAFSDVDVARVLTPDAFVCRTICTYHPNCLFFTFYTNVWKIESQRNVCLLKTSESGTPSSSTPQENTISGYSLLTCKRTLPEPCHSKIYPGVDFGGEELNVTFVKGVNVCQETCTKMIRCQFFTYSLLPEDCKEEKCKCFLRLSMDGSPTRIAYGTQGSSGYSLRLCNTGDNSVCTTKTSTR
METHOD_SUMMARY: Neat human plasma assay, FXIIa contact pathway-activated, PFR-AMC substrate
Type: biochemical
MEASUREMENT_SETUP: citrated human plasma 78% final, 10 nM human FXIIa, 100 μM PFR-AMC; read-out: Human Plasma Assay: IC90
Kindly state IC90 for each of the entries shown.

COMPOUND: O=C(Nc1cc(NCc2cn3cc(C4CC4)cc(N4CCOC4=O)c3n2)ncn1)[C@H]1C[C@@H]1c1cc(Cl)ccn1 (racemic) [Example I-173]
IC90: 400 to 1500 nM

COMPOUND: O=C(Nc1cc(NCc2cn3cc(C4CC4)cc(N4CCS(=O)(=O)CC4)c3n2)ncn1)[C@H]1C[C@@H]1c1cccc(Cl)c1
IC90: 1500 to 10000 nM

COMPOUND: Cc1ccnc([C@H]2C[C@@H]2C(=O)Nc2cc(NCc3cn4cc(C5CC5)cc(N5CC(=O)N(C)C5=O)c4n3)nc(C(F)F)n2)n1 (racemic)
IC90: < 400 nM

Batch: IC90 for all items listed.
1. Cc1ccnc([C@H]2C[C@@H]2C(=O)Nc2cc(NCc3cn4cc(C5CC5)cc(S(C)(=O)=O)c4n3)ncn2)n1 (single isomer, unassigned) [Example 324]
2. Cc1ccnc([C@H]2C[C@@H]2C(=O)Nc2cc(NC(C)c3cn4cc(C5CC5)cc(N5CC(=O)N(CCO)C5=O)c4n3)nc(C3CC3)n2)n1 (stereo partly drawn)

output:
["400 to 1500 nM", "1500 to 10000 nM"]

Reported IC90 of COc1cnc(NC(=O)[C@H]2C[C@@H]2c2nccc(C)n2)nc1NCc1cn2cc(C3CC3)cc(N3CC(=O)N(C)C3=O)c2n1 (racemic) : < 400 nM
